This collection of values is drawn from patent US8563545B2.

Experiment: Steady state PK in rat CIA model
Type: in vivo
Conditions: plasma, PO 10 mg/kg/day, read-out: T½ (converted)
MEASURED METRIC: half-life (h)

I. O=C(Nc1nc2cccc(-c3ccc(CN4CCOCC4)cc3)n2n1)C1CC1
II. O=C(Nc1nc2cccc(-c3ccc(CN4CCS(=O)(=O)CC4)cc3)n2n1)C1CC1
Quick one: lower half-life, I or II ? Choose, then provide that item's label.
I
(I: 1.17 h, II: 4.5 h)

====

Experiment: Pharmacokinetic study in rodents
Assay type: in vivo, rat
Conditions: male, plasma; Sprague-Dawley rat, PO 5 mg/kg; read-out: AUC (0-z)
MEASURED METRIC: AUC (ng·h/mL)

1) O=C(Nc1nc2cccc(-c3ccc(CN4CCS(=O)(=O)CC4)cc3)n2n1)C1CC1	1430

A. O=C(Nc1nc2cccc(-c3ccc(CN4CCOCC4)cc3)n2n1)C1CC1
B. O=C(Nc1nc2cccc(-c3ccc(CN4CCC(F)(F)CC4)cc3)n2n1)C1CC1
Could you kindly indicate whether A or B has the higher AUC value? Let me know the label of the one you choose.
A
